Assay: Moisture sorption/desorption studies (hygrostat, storage at different temperatures and relative humidity)
Type: physicochemical
Details: 37° C., 94% RH, 1 d
PROPERTY MEASURED: water content (Table III) (%)
All answers are understood in %, so give the number only.

[in] Which measured water content (Table III) value corresponds to CN1C2CCC1CC(NC(=O)n1c(=O)[nH]c3ccccc31)C2 (stereo not shown) [Compound 1a, reference compound] ?
[out] 5.04

###

Assay: Moisture sorption/desorption studies (hygrostat, storage at different temperatures and relative humidity)
Type: physicochemical
Details: Room Temperature, 75% RH, 4 h; hydrochloride monohydrate
Structures can show the parent of a compound that is named as a salt.
PROPERTY MEASURED: water content (Table III) (%)
# output: bare number, implied unit %

[in] Look at this molecule and give its reported water content (Table III). CN1C2CCC1CC(NC(=O)n1c(=O)[nH]c3ccccc31)C2 (stereo not shown) [Compound 2a, hydrochloride monohydrate]
[out] 5.43

###

Test: Moisture sorption/desorption studies (hygrostat, storage at different temperatures and relative humidity)
Format: physicochemical
Conditions: 37° C., 94% RH, 4 h
PROPERTY MEASURED: water content (Table III) (%)
Quick reminder: number only, in %, skip the unit.

[in] Quick one: water content (Table III) of CN1C2CCC1CC(NC(=O)n1c(=O)[nH]c3ccccc31)C2 (stereo not shown) [Compound 1a, reference compound] ?
[out] 3.41

Origin of measurements: patent US5468758A
